This listing pairs compounds with measured pIC50.
subjectOfTest: purified recombinant perforin (Mus musculus)
Sequence (P10820 21-554): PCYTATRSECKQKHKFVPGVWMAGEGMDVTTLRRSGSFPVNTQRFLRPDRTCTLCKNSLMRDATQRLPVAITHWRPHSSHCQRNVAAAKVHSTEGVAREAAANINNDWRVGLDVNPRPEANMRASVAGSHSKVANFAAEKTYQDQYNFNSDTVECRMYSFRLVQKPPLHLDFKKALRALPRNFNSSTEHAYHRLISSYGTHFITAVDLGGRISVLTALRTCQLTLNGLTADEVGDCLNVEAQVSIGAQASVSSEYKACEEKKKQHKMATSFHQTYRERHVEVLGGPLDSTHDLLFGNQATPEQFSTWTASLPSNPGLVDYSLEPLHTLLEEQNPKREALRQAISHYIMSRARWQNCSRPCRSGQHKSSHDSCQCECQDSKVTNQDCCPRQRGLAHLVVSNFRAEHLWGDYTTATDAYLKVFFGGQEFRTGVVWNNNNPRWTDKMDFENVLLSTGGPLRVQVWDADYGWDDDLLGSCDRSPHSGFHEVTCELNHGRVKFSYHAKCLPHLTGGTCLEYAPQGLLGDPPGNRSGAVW
assayInfo: cell-based
studyConditions: lysis of Jurkat cells by purified recombinant perforin, 51Cr release, 0.1% BSA; average of at least three determinations; read-out: inhibition of Jurkat cell lysis, IC50
pIC50: −log10 of the molar value.
valueKind: pIC50

CN1CCc2cc(-c3ccc(/C=C4/NC(=S)NC4=O)s3)ccc2C1=O: 5.63
CN1CCc2ccc(-c3ccc(/C=C4/NC(=S)NC4=O)s3)cc2C1=O: 5.32
O=C1NC(=S)N/C1=C/c1ccc(-c2ccc3c(c2)CNC3=O)s1: 5.59
O=C1NC(=S)N/C1=C/c1ccc(-c2ccc3c(c2)CN(CC(O)CO)C3=O)s1 (centres unmarked): 5.90
O=C1NC(=S)N/C1=C/c1ccc(-c2cccc(C(F)(F)F)c2)s1: 5.25
CC(O)CNC(=O)c1ccc(-c2ccc(/C=C3/NC(=S)NC3=O)s2)cc1 (centres unmarked): 5.19
O=C1NC(=S)N/C1=C/c1cc2cc(-c3ccc4c(c3)CNC4=O)ccc2[nH]1: 5.60
O=C1NC(=S)N/C1=C/c1ccc(-c2cccc(F)c2)s1: 4.97
O=C1NC(=S)N/C1=C/c1ccc(-c2ccc(F)c(F)c2)s1: 5.34

The measured values listed here are drawn from paper PMC3865801.
